Target: T1, Human Id2: Histidine (human, UniProt Q02363 1-134, limits assumed)
T1 construct: Fusion protein made in E. coli from vector pGW07; also called h-Id2: His; not shown: His tag
T1 sequence (looked up): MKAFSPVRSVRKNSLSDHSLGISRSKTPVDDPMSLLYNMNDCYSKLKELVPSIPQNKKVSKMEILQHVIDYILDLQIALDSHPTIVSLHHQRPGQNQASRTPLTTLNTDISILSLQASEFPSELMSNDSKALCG
Assay: ELISA, Ab 0.500 µg/ml
Experimental Endpoint: A450 (A450)
Write it as a number; the unit A450 goes unstated.

Example entries begin here.
Binder	Value
rabbit monoclonal anti-mouse/human Id3, clone #BCH-4/#16-1 (antibody, V domains shown, Rabbit IgG from a rabbit hybridoma; also called m/h Id3 MoAb 16-1) VH: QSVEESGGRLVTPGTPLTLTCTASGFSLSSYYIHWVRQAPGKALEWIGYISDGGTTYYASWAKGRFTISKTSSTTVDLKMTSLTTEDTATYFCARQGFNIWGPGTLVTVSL VL: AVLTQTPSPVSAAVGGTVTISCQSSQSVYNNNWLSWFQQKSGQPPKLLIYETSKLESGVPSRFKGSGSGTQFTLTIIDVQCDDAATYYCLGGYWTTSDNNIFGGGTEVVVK	0.058
rabbit monoclonal anti-mouse/human Id3, clone #BCH-4/#6-1 (antibody, V domains shown, Rabbit IgG from a rabbit hybridoma; also called m/h Id3 MoAb 6-1) VH: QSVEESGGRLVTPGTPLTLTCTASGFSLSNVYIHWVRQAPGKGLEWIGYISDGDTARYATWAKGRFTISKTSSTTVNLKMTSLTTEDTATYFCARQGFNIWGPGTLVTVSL VL: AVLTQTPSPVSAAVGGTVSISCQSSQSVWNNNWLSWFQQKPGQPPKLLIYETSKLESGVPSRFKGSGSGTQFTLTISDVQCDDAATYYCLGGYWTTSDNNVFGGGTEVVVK	0.063
rabbit monoclonal anti-human Id3, clone #BCH-4/#3-3 (antibody, V domains shown, Rabbit IgG from a rabbit hybridoma; also called h Id3 MoAb 3-3) VH: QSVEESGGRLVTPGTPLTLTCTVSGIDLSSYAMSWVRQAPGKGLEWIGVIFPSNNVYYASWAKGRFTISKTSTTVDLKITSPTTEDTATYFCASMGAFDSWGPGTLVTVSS VL: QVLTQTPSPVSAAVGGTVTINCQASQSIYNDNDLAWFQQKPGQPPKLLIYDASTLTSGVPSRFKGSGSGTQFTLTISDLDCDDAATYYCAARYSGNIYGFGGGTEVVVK	0.047
rabbit monoclonal anti-mouse/human Id3, clone #BCH-4/#17-3 (antibody, V domains shown, Rabbit IgG from a rabbit hybridoma; also called m/h Id3 MoAb 17-3; BCH-3/#17-3) VH: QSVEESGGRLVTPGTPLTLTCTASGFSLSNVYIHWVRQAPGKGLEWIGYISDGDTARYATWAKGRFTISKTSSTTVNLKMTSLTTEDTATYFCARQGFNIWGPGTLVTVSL VL: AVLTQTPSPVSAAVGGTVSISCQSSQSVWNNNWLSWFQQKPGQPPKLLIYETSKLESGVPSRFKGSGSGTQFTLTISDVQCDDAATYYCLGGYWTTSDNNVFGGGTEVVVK	0.053

Would you kindly look at the next entry?
input: Which A450 value belongs to rabbit monoclonal anti-mouse/human Id3, clone #BCH-4/#42-1 (antibody, V domains shown, Rabbit IgG from a rabbit hybridoma; also called m/h Id3 MoAb 42-1) VH: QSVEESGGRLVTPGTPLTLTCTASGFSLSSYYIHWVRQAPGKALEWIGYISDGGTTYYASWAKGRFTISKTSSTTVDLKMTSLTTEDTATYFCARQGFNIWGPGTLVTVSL VL: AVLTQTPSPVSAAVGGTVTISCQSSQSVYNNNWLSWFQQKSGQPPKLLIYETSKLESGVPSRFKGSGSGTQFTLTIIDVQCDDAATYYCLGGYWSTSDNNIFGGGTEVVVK ?
output: 0.057
